# Test system: SR leukemia
# METHOD: NCI-60 one-dose screen, 48 h (100 = growth as untreated, 0 = no growth, -100 = all killed)
# EXPERIMENTAL_PARAMETERS: 10 µM unless noted
Compounds without any hit were thinned out: in the full panel of roughly 83,000, 20% have a hit.
PARAMETER_MEASURED: growth (%)
Give just the number in %; leave the unit off.

QUERY: Item COc1cccc(C2=NN3C(C2)c2ccccc2OC3c2ccc(/C=C3\SC(=O)NC3=O)cc2)c1 (stereo unspecified) has what recorded growth?
RESULT: 120

QUERY: # get_value(readout='growth', item= COc1cc(/C=C2\CN(C)C/C(=C\c3cc(CN4CCCC4)c(O)c(OC)c3)C2=O)cc(CN2CCCC2)c1O )
RESULT: 38.7

QUERY: State the recorded growth for this entry: O=c1[nH]nnc2c1ncn2C1OC(CO)C(O)C1O (stereo unspecified)
RESULT: 37.7

QUERY: Need growth of Cc1ccc(OCCCCCCNCCO)c(C)c1 , thanks.
RESULT: 11.2

QUERY: May I ask what growth has been recorded for Cc1nc(Nc2ccccn2)sc1C(=O)/C=C/c1ccc(Cl)cc1 ?
RESULT: 15.6

QUERY: Request the reported growth associated with O=C(NC1CCN(Cc2ccccc2)CC1)c1cc2nc(-c3ccc(Cl)s3)cc(C(F)(F)F)n2n1
RESULT: -8.99

QUERY: I am curious: what growth value has been reported for CCCN1C(=O)N(CCC)C2C1NN=c1s/c(=C3\C(=O)N(C(C)C)c4ccccc43)c(=O)n12 (stereo unspecified) ?
RESULT: 7.97

QUERY: What measured growth goes with Cc1ccc2[nH]c(=O)cc(-n3nncc3Cn3c4ccccc4c4ccccc43)c2c1 ?
RESULT: 103

QUERY: Consider the compound COc1ccc(/C=c2\sc3n(c2=O)NC2C(N=3)N(C)C(=O)N2C)cc1 (stereo unspecified) and give its measured growth.
RESULT: 86.8

QUERY: GET /values?readout=growth&item= CC1(C)CC2(C)OC2C2(C1)N=NC(=Nc1ccccc1)O2 (stereo unspecified)
RESULT: 11.3

QUERY: Need growth of COc1cc(OC)cc(N2C(=O)N(Cc3ccc(C(C)(C)C)cc3)c3ccccc3S2(=O)=O)c1 , thanks.
RESULT: 41.8

QUERY: What does the record list as growth for O=C(CN1C=NC2C(N3CCOCC3)=NC=NC21)c1ccc(Br)cc1 (stereo unspecified) ?
RESULT: 104

QUERY: Endpoint output: growth of O=C1C(Cl)=C(NCc2ccco2)C(=O)c2ccccc21 . Value?
RESULT: 63.9

QUERY: Which measured growth value corresponds to Cc1ccc(CN2CCC(C(=O)Nc3ccc(-c4cc5ccccc5[nH]4)cc3)CC2)o1 ?
RESULT: 14.1

QUERY: State the recorded growth for this entry: CCCCCCc1cc2cc(-c3csc(/C=C/c4ccccc4)n3)c(=O)oc2cc1O
RESULT: -7.16

QUERY: GET /values?readout=growth&item= O=c1c(-c2nc3ccccc3[nH]2)cc2ccccc2n1Cc1cn(Cc2ccc(N3CCOCC3)cc2)nn1
RESULT: 71.7

QUERY: Reported growth, compound CCOC(=O)c1cc2c(n1Cc1cccc(OC)c1)-c1oncc1CCC2 : ____
RESULT: 10.1

QUERY: Which growth is reported for this compound? Cc1ccc(NCCNCC(O)CO)c2c(=O)c3ccccc3sc12 (stereo unspecified)
RESULT: -9.74

QUERY: Endpoint output: growth of COc1ccc(C)c2sc(N(Cc3cccnc3)C(=O)c3ccc(C#N)cc3)nc12 . Value?
RESULT: 8.52

QUERY: Tell me the measured growth of Cc1[nH]c2ccccc2c(=O)c1CC=C(Cl)Cl , please.
RESULT: -8.18

QUERY: Need growth, item N#Cc1c(N)nc2c(c1N)C(c1ccc(F)cc1)c1ccc(N)cc1O2 (stereo unspecified)
RESULT: 93

QUERY: Consider the compound O=[N+]([O-])c1cc2c(ccc3occc32)o1 and give its measured growth.
RESULT: 10.9

QUERY: Item N#C/C(=C\c1c(-c2ccccc2)[nH]c2ccccc12)S(=O)(=O)c1ccccc1 has what recorded growth?
RESULT: 17.9

QUERY: Need growth, item COc1ccc(CCN2C(=O)/C(=C/c3ccc(C4Oc5ccccc5C5CC(c6cccc(OC)c6)=NN54)cc3)SC2=S)cc1 (stereo unspecified)
RESULT: 115

QUERY: I have this compound here, COc1ccc(-c2nsc3c2NC(=O)CC3c2cccc(OC)c2)cc1 (stereo unspecified) , and I need its recorded growth.
RESULT: 24.3

QUERY: Field request: growth | item: CC(C)CCOc1ccc(-c2n[nH]c(C(F)(F)F)c2-c2cncc(C#N)c2)c(O)c1
RESULT: 33.7

QUERY: Sample CCn1c(-c2nonc2Nc2ccc(OC)cc2)nc2ccccc21 — what was its growth?
RESULT: 110

QUERY: Sample COc1ccccc1C1=C(Br)C(=O)c2nc(C)ccc2C1=O — what was its growth?
RESULT: 105

QUERY: Request the reported growth associated with CCCCc1c(CCC)c(=N)c2ccccc2n1C
RESULT: 6.82

QUERY: For the compound shown here, Oc1c(C(Nc2ccccn2)c2cccc(Oc3ccccc3)c2)ccc2cccnc12 (stereo unspecified) , give the reported growth.
RESULT: -49.7

QUERY: Consider the compound shown here: Fc1ccc(Oc2ccc(Nc3ncnc4onc(-c5ccccc5)c34)cc2)cc1 What is its recorded growth?
RESULT: 102

QUERY: I am curious: what growth value has been reported for CC(=O)SC1CC(=O)C=C2CCC3C4CCC(=O)OC4(C)CCC3C21C (stereo unspecified) ?
RESULT: 111

QUERY: Recorded growth of COc1ccc(N(C)c2nc(N)nc3sc4c(c23)CCCC4)cc1 , please.
RESULT: 6.49

QUERY: Given CS(=O)(=O)Nc1ccc(C(=O)NC(C(=O)NO)c2ccc(-c3cccc(F)c3)cc2)cc1 (stereo unspecified) , state its recorded growth.
RESULT: 78.8

QUERY: I have this compound here, COC(=O)c1c2c(c(C)[n+]([O-])c1C)C(=O)C(NCc1ccc(F)c(F)c1)=CC2=O , and I need its recorded growth.
RESULT: 20.4

QUERY: growth for CCCCNc1nc(NC(C)(C)C)nc(NC(C)(C)C)n1 ?
RESULT: 33.6

QUERY: Can you look up the measured growth of OCCNc1nc(Nc2ccc(C3=NN(c4cc(Cl)cc(Cl)c4)C(c4ccc(C(F)(F)F)cc4)C3)cc2)nc(N2CCOCC2)n1 (stereo unspecified) for me?
RESULT: 70.5

QUERY: Sample Cc1ccc2cc3c(N)c4c(C)ccc(C)c4nc3nc2c1 — what was its growth?
RESULT: -9.96

QUERY: Report growth for COC(=O)/C(CCC=C(C)C)=C1\[C@@H](OC(C)=O)C[C@@]2(C)[C@H]1C[C@@H](O)[C@H]1[C@@]3(C)CC[C@H](NCCCNCCCCNCCCN)[C@@H](C)[C@@H]3CC[C@@]12C please.
RESULT: 42.3

QUERY: Which measured growth value corresponds to CCCCCCCCCCOC(=O)c1ccccc1C(=O)OCCCC ?
RESULT: 100

QUERY: Suppose we examine the compound NCCOc1ncccc1/C=C1\c2ccccc2-c2ccc([N+](=O)[O-])cc21 ; what growth value has been reported?
RESULT: 1.14
